molecular target: human ICOS as used for the 'ICOS OD' read-out of Table 14 (human); experiment: binding read as OD; format not described
Sequence (Q9Y6W8 whole entry): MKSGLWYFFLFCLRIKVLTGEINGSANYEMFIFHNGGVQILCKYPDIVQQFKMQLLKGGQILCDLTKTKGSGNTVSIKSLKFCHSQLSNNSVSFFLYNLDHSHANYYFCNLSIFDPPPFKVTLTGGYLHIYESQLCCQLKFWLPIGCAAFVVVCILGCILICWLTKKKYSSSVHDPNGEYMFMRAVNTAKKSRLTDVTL
measure_name: ICOS OD (OD)
Write down the numeric answer in OD and omit the unit.

// known answers, use as guide
>  <binder>
ICOSL variant F120S/Y152H/N201S ECD-Fc fusion (Fc fusion, not shown: C220S/R292C/N297G/V302C) and the AAA linker to it) DTQEKEVRAMVGSDVELSCACPEGSRFDLNDVYVYWQTSESKTVVTYHIPQNSSLENVDSRYRNRALMSPAGMLRGDFSLRLFNVTPQDEQKFHCLVLSQSLGFQEVLSVEVTLHVAANSSVPVVSAPHSPSQDELTFTCTSINGYPRPNVHWINKTDNSLLDQALQNDTVFLNMRGLYDVVSVLRIARTPSVNIGCCIESVLLQQNLTVGSQTGNDIGERDKITENPVSTGEKNAAT

>  <uom>
OD

>  <ICOS OD>
0.63

$$$$
>  <binder>
ICOSL variant N52D ECD-Fc fusion (Fc fusion, not shown: no entry of the listing is held) DTQEKEVRAMVGSDVELSCACPEGSRFDLNDVYVYWQTSESKTVVTYHIPQDSSLENVDSRYRNRALMSPAGMLRGDFSLRLFNVTPQDEQKFHCLVLSQSLGFQEVLSVEVTLHVAANFSVPVVSAPHSPSQDELTFTCTSINGYPRPNVYWINKTDNSLLDQALQNDTVFLNMRGLYDVVSVLRIARTPSVNIGCCIENVLLQQNLTVGSQTGNDIGERDKITENPVSTGEKNAAT

>  <uom>
OD

>  <ICOS OD>
1.59

$$$$
>  <binder>
ICOSL variant N52S/Y146C/Y152C ECD-Fc fusion (Fc fusion, not shown: a dimerising Fc or GST; small tags and cut ends) DTQEKEVRAMVGSDVELSCACPEGSRFDLNDVYVYWQTSESKTVVTYHIPQSSSLENVDSRYRNRALMSPAGMLRGDFSLRLFNVTPQDEQKFHCLVLSQSLGFQEVLSVEVTLHVAANFSVPVVSAPHSPSQDELTFTCTSINGCPRPNVCWINKTDNSLLDQALQNDTVFLNMRGLYDVVSVLRIARTPSVNIGCCIENVLLQQNLTVGSQTGNDIGERDKITENPVSTGEKNAAT

>  <uom>
OD

>  <ICOS OD>
1.26

$$$$
>  <binder>
ICOSL variant N52H/N57Y/Q100P ECD-Fc fusion (Fc fusion, not shown: no entry of the listing is held) DTQEKEVRAMVGSDVELSCACPEGSRFDLNDVYVYWQTSESKTVVTYHIPQHSSLEYVDSRYRNRALMSPAGMLRGDFSLRLFNVTPQDEQKFHCLVLSPSLGFQEVLSVEVTLHVAANFSVPVVSAPHSPSQDELTFTCTSINGYPRPNVYWINKTDNSLLDQALQNDTVFLNMRGLYDVVSVLRIARTPSVNIGCCIENVLLQQNLTVGSQTGNDIGERDKITENPVSTGEKNAAT

>  <uom>
OD

>  <ICOS OD>
1.57

$$$$

Ask: For ICOSL variant N52S/S130G/Y152C ECD-Fc fusion (Fc fusion, not shown: The AAA linker to it is left out) DTQEKEVRAMVGSDVELSCACPEGSRFDLNDVYVYWQTSESKTVVTYHIPQSSSLENVDSRYRNRALMSPAGMLRGDFSLRLFNVTPQDEQKFHCLVLSQSLGFQEVLSVEVTLHVAANFSVPVVSAPHGPSQDELTFTCTSINGYPRPNVCWINKTDNSLLDQALQNDTVFLNMRGLYDVVSVLRIARTPSVNIGCCIENVLLQQNLTVGSQTGNDIGERDKITENPVSTGEKNAAT , what is its reported ICOS OD?
Result: 0.16
